This listing pairs compounds with measured Barnyardgrass plant response rating.
system: barnyardgrass; assay: Test A pre-/postemergence herbicide test; format: in vivo, Echinochloa crus-galli; details: Preemergence, 500 g ai/ha; visual rating, 0 to 100 scale (0 no effect, 100 complete control)
Number only, please.

For barnyardgrass, provide Barnyardgrass plant response rating of CCOC(=O)c1cc(NC(=O)c2cc(C(C)(C)C)nn2CC)ccc1OC please.
70

----------
system: Surinam grass; test: Test C pre-/postemergence herbicide test; type: in vivo, Urochloa decumbens; details: Preemergence, 500 g ai/ha; scale 0 to 100, 0 no effect, 100 complete control
PROPERTY MEASURED: Surinam Grass plant response rating
No unit in the answer, please; the number alone is enough.

Worked examples follow.
>  <MOL SMILES>
CCOC(=O)c1cc(NC(=O)c2cc(C(C)(C)C)nn2CC)ccc1OC

>  <PROPERTY MEASURED>
Surinam Grass plant response rating

>  <NUMERIC RESULT>
65

$$$$
>  <MOL SMILES>
C#CCn1nc(C(C)(C)C)cc1C(=O)Nc1cccc(C(=O)NCC)c1

>  <PROPERTY MEASURED>
Surinam Grass plant response rating

>  <NUMERIC RESULT>
85

$$$$
>  <MOL SMILES>
CCCN1CCc2c(NC(=O)c3cc(C(C)(C)C)nn3CC)cccc2C1=O

>  <PROPERTY MEASURED>
Surinam Grass plant response rating

>  <NUMERIC RESULT>
50

$$$$
>  <MOL SMILES>
C=CCNC(=O)c1cccc(NC(=O)c2sc(C(C)(C)C)nc2CC)c1

>  <PROPERTY MEASURED>
Surinam Grass plant response rating

>  <NUMERIC RESULT>
10

$$$$
>  <MOL SMILES>
CCn1nc(C(C)(C)C)cc1C(=O)Nc1cccc2c1CN(C)C2=O

>  <PROPERTY MEASURED>
Surinam Grass plant response rating

>  <NUMERIC RESULT>
100

$$$$
>  <MOL SMILES>
CC(=NO)c1cccc(NC(=O)c2cc(C(C)(C)C)nn2CCF)c1

>  <PROPERTY MEASURED>
Surinam Grass plant response rating

>  <NUMERIC RESULT>
90

$$$$

Field request: Surinam Grass plant response rating | item: CCn1nc(C(C)(C)C)cc1C(=O)Nc1cccc2c1CCN(C1CC1)C2=O
50

// Surinam Grass plant response rating lookup, key: CCN(C)C(=O)c1cccc(NC(=O)c2cc(C(C)(C)C)nn2CC)c1
60

# Surinam Grass plant response rating lookup, item CCNC(=O)c1cccc(NC(=O)c2sc(C(C)(C)C)nc2C)c1
100

What value of measured Surinam Grass plant response rating is listed for CCn1nc(C(C)(C)C)cc1C(=O)Nc1cccc(SC(F)(F)F)c1 ?
60
